Tested on: HS 578T breast
assay-details: NCI tumour cell line growth inhibition, 48 h
measure-name: log10 of TGI (log10 of the value in µM)

>>> data_value("O=C(Nc1ccccc1)N1N=C(c2ccccc2)C1c1ccccc1 (stereo not drawn)")
1.78
>>> data_value("CCCCCCCCCCCCNC(=O)[C@H]1CSC(c2ccc(OC)c(F)c2)N1 (stereo partly drawn)")
-0.24
>>> data_value("CSc1s[s+]c(SC)c1-c1ccccc1")
1.94
>>> data_value("COC(=O)c1ccc(OCc2ccc3nc(-c4ccccc4)c(Cl)nc3c2)cc1")
2.00
>>> data_value("Cc1ccc(OCCCCCCNCCO)c(C)c1")
1.55
>>> data_value("O=C(O)c1ccc(Nc2cnc3ccc(C(F)(F)F)cc3n2)cc1")
1.60
>>> data_value("BrCC[P+](c1ccccc1)(c1ccccc1)c1ccccc1")
1.70
>>> data_value("C=CC[PH+](c1ccccc1)c1ccccc1.C=CC[PH+](c1ccccc1)c1ccccc1.[Cl][Pt][Cl]")
1.69
>>> data_value("O=C(CCCN1CCc2[nH]c3cc(F)ccc3c2C1)c1ccc(F)cc1")
1.48

====

# TGI per entry
System: HCT-15 colon
assay-details: NCI tumour cell line growth inhibition, 48 h
measure-name: TGI

>>> data_value("Cc1nc(C(N)=S)sc1C(=O)CC(=O)C(=O)Nc1cccc(Cl)c1C")
"> 100 µM"
>>> data_value("C/C=C\\C(CC(=O)O)CC(=O)NCCC1CN(S(=O)(=O)C(F)(F)F)c2ccccc21 (stereo not drawn)")
"> 100 µM"
>>> data_value("O=C(O)CNC(=O)c1cccc2c(=O)c3ccccc3[nH]c12")
"> 100 µM"

====

# TGI per entry
Test system: SW-620 colon
assay-details: NCI tumour cell line growth inhibition, 48 h
Where a SMILES comes first, the peptide text is derived from it. The star is where a group is joined. Palmitoyl = CCCCCCCCCCCCCCCC(=O)*
measure-name: TGI

>>> data_value("CC(=O)N[C@@H]1CCC[C@H](C(=O)Nc2cc(-c3cnn4c3CC(C)(C)C4)c(Cl)cn2)C1")
"> 100 µM"
>>> data_value("O=C(OCc1nc2ccc(Br)cc2c(=O)n1-c1ccccc1)c1ccccc1O")
"> 100 µM"
>>> data_value("Clc1ccccc1C1=NN(c2ccccc2)C2c3cc(Br)ccc3OCC12 (stereo not given)")
"> 100 µM"
>>> data_value("Cc1nn(C(=O)c2ccccc2O)c2c1C(c1ccc(O)cc1)SC(N)=N2 (stereo not given)")
"> 10 µM"
>>> data_value("COc1ccc(S(=O)(=O)Nc2ccc(-c3csc(N4C(=O)/C(=C/C=C\\c5ccccc5)N=C4c4ccccc4)n3)cc2)cc1Cl")
"> 100 µM"
>>> data_value("CC(C)(C)c1ccc(S(=O)(=O)N[C@H]2CC[C@H]3[C@@H]4CCc5cc(O)ccc5[C@H]4CC[C@]23C)cc1")
"11.8 µM"
>>> data_value("N#CC1(C#N)C2C=CC(C3CCC=C32)C1(C#N)C#N (stereo not given)")
"3.32 µM"
>>> data_value("C=CCOn1c(C=C)nc2c(C)cccc21")
"11.2 µM"
>>> data_value("CCOC(=O)Cc1nc2c(=O)[nH]cnc2n1C1OC(COC(C)=O)C(OC(C)=O)C1OC(C)=O (stereo not given)")
"> 100 µM"
>>> data_value("CN(C)CCNC(=O)c1cccc2c(NC(CS)C(=O)O)c3ccccc3nc12 (stereo not given)")
"> 100 µM"
>>> data_value("OCCCCC#Cc1ccccc1C#Cc1cnccn1")
"> 100 µM"
>>> data_value("Cc1cccc(N2C(=O)/C(=C/c3ccc(N(CCC#N)CCC#N)cc3C)N=C2c2cc([N+](=O)[O-])ccc2Cl)c1")
"> 100 µM"
>>> data_value("CC(=O)Nc1ccc(C(=O)N2N=C(C)/C(=C/c3cccc(O)c3)C2=O)cc1")
"> 100 µM"
>>> data_value("CCCCCCCCCCCCCCCC(=O)NC(CCCCN)C(=O)NCC(=O)NC(Cc1ccccc1)C(=O)N1CCCC1C(=O)NC(CO)C(=O)NC(Cc1ccc(O)cc1)C(=O)NC(CCCCN)C(=O)NC(CC(C)C)C(=O)NC(CCCN=C(N)N)C(=O)N1CCCC1C(=O)NCC(N)=O (stereo not given) (Palmitoyl-KGFPSYKLRPG-NH2; configuration not given here)")
"79.5 µM"
>>> data_value("CCN(CC)c1ccc(C(=C2C=CC(=[N+](CC)CC)C=C2)c2ccccc2)cc1")
"0.138 µM"
